Where these numbers come from: patent US6432958B1

Please provide measured melting point for the entries that follow.

Exam item: melting point lookup needed for Cl.c1ccc(N2CCN(CCNc3nc4ccccc4o3)CC2)nc1 [Compound 3] , thanks.
Marked response: 255 to 265 °C

Exam item: melting point lookup needed for `Fc1cnc(N2CCN(CCNc3nc4ccccc4s3)CC2)nc1.O=C(O)/C=C/C(=O)O.O=C(O)/C=C/C(=O)O` , thanks.
Marked response: 174 to 175 °C

Exam item: melting point lookup needed for `Fc1ccc2nc(NCCN3CCN(Cc4ccccc4)CC3)sc2c1.O=C(O)/C=C/C(=O)O.O=C(O)/C=C/C(=O)O` , thanks.
Marked response: 228 to 229 °C

Exam item: melting point lookup needed for `Br.COc1ccccc1N1CCN(CCNc2nc3c(Cl)cccc3s2)CC1` , thanks.
Marked response: 194 to 195 °C

Exam item: melting point lookup needed for `Cl.c1cnc(N2CCN(CCNc3nc4ccccc4o3)CC2)nc1` , thanks.
Marked response: 197 to 202 °C

Exam item: melting point lookup needed for `Br.CC(C)Oc1ccccc1N1CCN(CCNc2nc3ccccc3n2C)CC1` , thanks.
Marked response: 285 °C (dec.)

Exam item: melting point lookup needed for `O=C(O)/C=C/C(=O)O.O=C(O)/C=C/C(=O)O.c1cnc(N2CCN(CCNc3nc4ccccc4s3)CC2)nc1` , thanks.
Marked response: 161 to 163 °C

Exam item: melting point lookup needed for `Fc1ccc2nc(NCCN3CCN(c4ncccn4)CC3)sc2c1.O=C(O)/C=C/C(=O)O.O=C(O)/C=C/C(=O)O` , thanks.
Marked response: 179 to 180 °C

Exam item: melting point lookup needed for `Br.Fc1ccc2nc(NCCN3CCN(c4cccc(C(F)(F)F)c4)CC3)sc2c1` , thanks.
Marked response: 259 to 261 °C

* * *

Please provide measured melting point for the entries that follow.

Exam item: melting point lookup needed for `O=C(O)/C=C/C(=O)O.O=C(O)/C=C/C(=O)O.c1ccc(N2CCN(CCNc3nc4ccccc4s3)CC2)nc1` , thanks.
Marked response: 159 to 160 °C

Exam item: melting point lookup needed for `COc1ccccc1N1CCN(CCNc2nc3ccccc3s2)CC1.O=C(O)/C=C/C(=O)O.O=C(O)/C=C/C(=O)O` , thanks.
Marked response: 101 to 103 °C

Exam item: melting point lookup needed for `Cl.Cl.Fc1ccc(N2CCN(CCNc3nc4ccccc4s3)CC2)cc1` , thanks.
Marked response: 229 to 231 °C

Exam item: melting point lookup needed for `Br.c1ccc(N2CCN(CCNc3nc4ccccc4[nH]3)CC2)nc1` , thanks.
Marked response: 290 to 291 °C

Exam item: melting point lookup needed for `O=C(O)/C=C/C(=O)O.O=C(O)/C=C/C(=O)O.c1ccc(N2CCN(CCNc3nc4ccccc4s3)CC2)cc1` , thanks.
Marked response: 131 to 132 °C

Exam item: melting point lookup needed for `Br.Fc1cnc(N2CCN(CCNc3nc4ccc(F)cc4s3)CC2)nc1` , thanks.
Marked response: 279 to 281 °C

Exam item: melting point lookup needed for `Br.COc1ccccc1N1CCN(CCNc2nc3c(C)cccc3s2)CC1` , thanks.
Marked response: 226 to 227 °C

Exam item: melting point lookup needed for `Br.CCn1c(NCCN2CCN(c3ccccc3)CC2)nc2ccccc21` , thanks.
Marked response: 270 °C (dec.)

Exam item: melting point lookup needed for `Br.Fc1ccc2nc(NCCN3CCN(c4ccccc4)CC3)sc2c1` , thanks.
Marked response: 268 to 270 °C

Exam item: melting point lookup needed for `Br.Fc1ccc2nc(NCCN3CCN(Cc4ccc(Cl)cc4)CC3)sc2c1` , thanks.
Marked response: 238 to 240 °C

Exam item: melting point lookup needed for `Br.COc1ccccc1N1CCN(CCCNc2nc3ccccc3s2)CC1` , thanks.
Marked response: 195 to 197 °C

Exam item: melting point lookup needed for `Br.CC(C)Oc1ccccc1N1CCN(CCNc2nc3ccc(F)cc3s2)CC1` , thanks.
Marked response: 216 to 217 °C

Exam item: melting point lookup needed for `Cc1cnc(N2CCN(CCNc3nc4ccccc4s3)CC2)nc1.O=C(O)/C=C/C(=O)O.O=C(O)/C=C/C(=O)O` , thanks.
Marked response: 167 to 170 °C

Exam item: melting point lookup needed for `Br.CCOc1ccccc1N1CCN(CCNc2nc3ccc(F)cc3s2)CC1` , thanks.
Marked response: 235 to 237 °C

Exam item: melting point lookup needed for `Br.COc1ccccc1N1CCN(CCNc2nc3ccccc3n2C)CC1` , thanks.
Marked response: 273 to 274 °C

Exam item: melting point lookup needed for `Br.c1ccc(N2CCN(CCNc3nc4ccccc4[nH]3)CC2)cc1` , thanks.
Marked response: 241 to 247 °C

* * *

Please provide measured melting point for the entries that follow.

Exam item: melting point lookup needed for `Br.Fc1ccc2nc(NCCN3CCN(c4ccccn4)CC3)sc2c1` , thanks.
Marked response: 259 to 260 °C

Exam item: melting point lookup needed for `Br.Cn1c(NCCN2CCN(c3cccc(C(F)(F)F)c3)CC2)nc2ccccc21` , thanks.
Marked response: 283 °C (dec.)

Exam item: melting point lookup needed for `Br.CCOc1ccc2nc(NCCN3CCN(c4ccccc4OC)CC3)sc2c1` , thanks.
Marked response: 227 to 228 °C

Exam item: melting point lookup needed for `Br.COc1ccccc1N1CCN(CCNc2nc3ccc(S(C)(=O)=O)cc3s2)CC1` , thanks.
Marked response: 190 to 196 °C

Exam item: melting point lookup needed for `Br.CCn1c(NCCN2CCN(c3ccccc3OC)CC2)nc2ccccc21` , thanks.
Marked response: 109 to 110 °C

Exam item: melting point lookup needed for `Br.COc1ccccc1N1CCN(CCNc2nc3ccccc3[nH]2)CC1` , thanks.
Marked response: 215 to 216 °C

Exam item: melting point lookup needed for `Br.COc1ccccc1N1CCN(CCNc2nc3c(OC)cccc3s2)CC1` , thanks.
Marked response: 171 to 173 °C

Exam item: melting point lookup needed for `Br.Fc1ccc(N2CCN(CCNc3nc4ccc(F)cc4s3)CC2)cc1` , thanks.
Marked response: 270 to 271 °C

Exam item: melting point lookup needed for `Cl.Cl.Clc1ccc(N2CCN(CCNc3nc4ccccc4s3)CC2)cc1` , thanks.
Marked response: 230 to 232 °C

Exam item: melting point lookup needed for `Br.Cc1cnc(N2CCN(CCNc3nc4ccc(F)cc4s3)CC2)nc1` , thanks.
Marked response: 240 to 250 °C

* * *

biological target: D2 receptors from human (Homo sapiens, UniProt P14416); test: D2 receptor binding assay (3H-YM 09151-2 displacement); conditions: COS cells containing recombinantly produced human D2 receptors; 0.5 nM 3H-YM 09151-2
Sequence (P14416 whole entry): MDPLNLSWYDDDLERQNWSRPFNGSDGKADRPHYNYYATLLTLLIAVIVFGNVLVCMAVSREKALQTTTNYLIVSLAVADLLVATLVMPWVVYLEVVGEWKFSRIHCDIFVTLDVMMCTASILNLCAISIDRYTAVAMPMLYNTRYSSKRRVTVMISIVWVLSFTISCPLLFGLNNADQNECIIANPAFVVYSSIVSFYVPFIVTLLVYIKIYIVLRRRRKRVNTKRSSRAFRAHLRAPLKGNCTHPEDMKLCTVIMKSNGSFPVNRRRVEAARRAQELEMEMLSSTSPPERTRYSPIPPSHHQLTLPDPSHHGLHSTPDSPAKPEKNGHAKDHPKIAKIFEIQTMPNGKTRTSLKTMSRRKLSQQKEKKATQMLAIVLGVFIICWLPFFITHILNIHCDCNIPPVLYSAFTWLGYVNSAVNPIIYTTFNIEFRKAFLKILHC
Please provide measured pKi for the entries that follow.
Conceptually, pKi converts a concentration in mol/L into minus its log10.

Exam item: pKi lookup needed for COc1ccccc1N1CCN(CCNc2nc3ccc(F)cc3s2)CC1 [Compound 2, difumarate] , thanks.
Marked response: 6.76

Exam item: pKi lookup needed for Fc1cnc(N2CCN(CCCCNc3nc4ccccc4s3)CC2)nc1 [Compound 6] , thanks.
Marked response: 5.79
